Please respond with reported Specific binding for every item in the list.
- TEST_TARGET: Adenosine receptor A1 (Homo sapiens)
- MEASUREMENT_DESCRIPTION: Inhibition of [3H]DPCPX binding to human Adenosine A1 receptor at 10e-6 M
Give bare numbers, in %.

Illustrative cases are given below, each with its answer.
>  <COMPOUND>
CCCC/N=c1/nc(-c2ccccc2)n(-c2ccccc2)s1

>  <Specific binding (%)>
126

$$$$
>  <COMPOUND>
C/N=c1\nc(C2C=CC=CC2)n(C2C=CC=CC2)s1 (stereo unspecified)

>  <Specific binding (%)>
122

$$$$
>  <COMPOUND>
CCCC/N=c1/nc(-c2ccccc2)n(-c2cccc(C)c2)s1

>  <Specific binding (%)>
114

$$$$

Provide the reported Specific binding of each entry below, same order.
1. Cc1cccc(-n2s/c(=N/C3CCCC3)nc2-c2ccccc2)c1
2. Cc1cccc(-n2s/c(=N\C(C)C)nc2-c2ccccc2)c1
3. C/N=c1/nc(-c2ccccc2)n(-c2cccc(C)c2)s1

1: 101; 2: 121; 3: 132
